Items are presented alongside their recorded pIC50.
# TARGET_OF_ASSAY: B-Raf (Homo sapiens, UniProt P15056)
# Sequence (P15056 whole entry): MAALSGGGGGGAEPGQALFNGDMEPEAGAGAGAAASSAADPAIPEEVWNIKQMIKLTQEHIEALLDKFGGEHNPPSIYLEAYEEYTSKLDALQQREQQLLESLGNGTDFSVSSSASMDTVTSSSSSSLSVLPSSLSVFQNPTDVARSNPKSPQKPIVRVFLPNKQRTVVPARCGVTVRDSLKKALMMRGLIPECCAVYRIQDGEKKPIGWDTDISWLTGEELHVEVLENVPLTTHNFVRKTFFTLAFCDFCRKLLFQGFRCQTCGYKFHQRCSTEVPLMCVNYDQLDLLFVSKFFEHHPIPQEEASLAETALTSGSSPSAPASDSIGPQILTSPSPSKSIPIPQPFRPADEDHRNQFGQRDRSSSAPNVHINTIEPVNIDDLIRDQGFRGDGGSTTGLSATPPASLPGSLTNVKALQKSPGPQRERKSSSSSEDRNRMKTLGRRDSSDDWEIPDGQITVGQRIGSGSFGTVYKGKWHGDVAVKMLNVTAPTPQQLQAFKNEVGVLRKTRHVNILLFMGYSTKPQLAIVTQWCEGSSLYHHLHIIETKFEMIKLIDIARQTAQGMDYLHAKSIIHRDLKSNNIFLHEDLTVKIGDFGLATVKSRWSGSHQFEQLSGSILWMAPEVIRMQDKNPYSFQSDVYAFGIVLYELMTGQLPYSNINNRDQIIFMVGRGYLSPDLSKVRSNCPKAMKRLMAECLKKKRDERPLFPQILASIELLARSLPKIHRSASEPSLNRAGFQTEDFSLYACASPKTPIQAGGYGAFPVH
# ASSAY_OVERVIEW: Luciferase-coupled chemiluminescence kinase assay (ATP consumption), B-Raf
# Assay type: biochemical
# ASSAY_SETUP: read-out: bRaf IC50
pIC50: −log10 of the molar value.

Recorded results for 3 compounds are shown here.
INSERT INTO results (compound, parameter_measured, recorded_result) VALUES
  ('COC(=O)Nc1nc2cc(C3(O)c4ccccc4C(=O)N3c3cccc(Br)c3)ccc2[nH]1 (stereo not shown)', 'pIC50', '> 7.00'),
  ('COC(=O)Nc1nc2cc(C3(O)c4ccccc4C(=O)N3c3cccc(C(=O)c4ccccc4)c3)ccc2[nH]1 (stereo not shown)', 'pIC50', '5.00 to 6.00'),
  ('COC(=O)Nc1nc2ccc(C3(O)c4ccccc4C(=O)N3Cc3cccc(F)c3)cc2[nH]1 (stereo not shown)', 'pIC50', '> 7.00');

Now consider a different compound.
-- ask For the compound O=C1COc2ccc(C3(O)c4ccccc4C(=O)N3Cc3cccc(I)c3)cc2N1 (stereo not shown) , give its reported pIC50.
-- reply 5.00 to 6.00
